I'd be grateful if you could share measured protection from cytokine-induced ATP loss for these entries.
# ASSAY_EXPLANATION: preservation of ATP in cytokine-treated beta cells – cell-based, ATP luminescence, single point, primary screen (AID 488910)
# CONDITION_LABEL: INS-1E cytokine-induced death, 48 h, at 10 µM, hits give high values, normalised: neutral wells 0, positive control 100
Among all 20,000 compounds or so, about 25 (0.1%) were called active. This is one part of a sample in which actives are shown more often than they occur.
Numbers only, in %.

Worked examples follow.
COc1ccc(S(=O)(=O)Nc2ccc3c(c2)C(=O)N([C@H](C)CO)C[C@@H](C)[C@H](CN(C)S(=O)(=O)c2ccc(C)cc2)O3)cc1 : -13.4
C[C@@H]1CN([C@@H](C)CO)C(=O)c2cc(NS(=O)(=O)c3ccc(Cl)cc3)ccc2O[C@H]1CN(C)C(=O)Nc1ccc(C(F)(F)F)cc1 : -4.38
C[C@@H]1CCCCO[C@H](CN(C)C(=O)c2ccccc2)[C@@H](C)CN([C@H](C)CO)C(=O)c2cc(NC(=O)Nc3cccc4ccccc34)ccc2O1 : -1.39
COc1ccc(NC(=O)N(C)C[C@H]2Oc3ccc(N(C)C)cc3C(=O)N([C@@H](C)CO)C[C@H]2C)cc1 : 3.7
C[C@H]1CN([C@@H](C)CO)C(=O)c2cccc(NC(=O)Nc3ccccc3)c2O[C@H]1CN(C)S(=O)(=O)c1ccc(Cl)cc1 : -12.7

Attention now shifts to the item below.
Param item = "C[C@@H]1CN([C@H](C)CO)C(=O)c2cccc(NS(=O)(=O)c3ccc(F)cc3)c2O[C@@H]1CN(C)C(=O)Nc1ccc(C(F)(F)F)cc1" ; retrieve measured protection from cytokine-induced ATP loss.
-38

Ref: PubChem BioAssay AID488910
